- SYSTEM: T1, GST-fused ligand-binding domain of human estrogen receptor β (amino acids 263–530) (human, UniProt Q92731 263-530)
- T1 construct: cDNA from OriGene Technologies; Subcloned into pGEX-6p-1; Captured on the chip through an anti-GST antibody; Incubated beforehand with 10 μM E2 or 10 μM BPC (small molecules) in two of the three SPR conditions; also called GST-ERβ-LBD; ERβ-LBD; source: E. coli BL21α, purified (Glutathione-Sepharose 4B, gel filtration on Sephadex G-10)
- T1 sequence (Q92731 263-530): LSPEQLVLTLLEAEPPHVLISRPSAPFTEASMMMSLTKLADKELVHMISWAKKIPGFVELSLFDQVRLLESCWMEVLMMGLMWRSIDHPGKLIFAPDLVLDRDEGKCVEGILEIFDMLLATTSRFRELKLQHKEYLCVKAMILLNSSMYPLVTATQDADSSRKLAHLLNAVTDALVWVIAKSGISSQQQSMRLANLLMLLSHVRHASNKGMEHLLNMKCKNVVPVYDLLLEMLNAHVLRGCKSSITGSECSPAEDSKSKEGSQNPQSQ
- MEASUREMENT_DESCRIPTION: SPR; Biacore T100; GST-ERβ-LBD without E2, captured on anti-GST antibody on a CM5 chip; SRC1 peptide injected; HBS-EP+ buffer
- RUN_PARAMETERS: both partners purified
PROPERTY_MEASURED: Kd (µM)
Numeric answer only, unit µM assumed.

Query Kd for ERHKILHRLLQEG (source: synthetic peptide (ABI 433A, solid phase, Fmoc chemistry)) [SRC1 peptide (amino acids 685–697) derived from human nuclear receptor coactivator 1]
9.1
